Readings of IC50 for the listed compounds
System: BV-2
assay overview: Anti-neuroinflammation in mouse BV2 cells assessed as inhibition of LPS-induced NO production preincubated for 1 hr followed by LPS addition measured after 24 hrs by Griess reagent based assay
Format: functional, cell-based
measurement name: IC50 (µM)

- cpd smiles: "O=S(=O)(Nc1ccc(-c2nc(-c3ccnc(Nc4ccc(OC(F)(F)F)cc4)c3)no2)cc1)c1cccc(C(F)(F)F)c1"
  subject of test: "BV-2"
  measurement name: "IC50"
  numeric readout: 1.49
- cpd smiles: "COc1ccc(Nc2cc(-c3noc(-c4ccc(NS(=O)(=O)c5ccc(C(C)(C)C)cc5)cc4)n3)ccn2)cc1"
  subject of test: "BV-2"
  measurement name: "IC50"
  numeric readout: 6.18
- cpd smiles: "COc1ccc(S(=O)(=O)Nc2ccc(-c3nc(-c4ccnc(Nc5ccc(OC(F)(F)F)cc5)c4)no3)cc2)cc1"
  subject of test: "BV-2"
  measurement name: "IC50"
  numeric readout: 3.23
- cpd smiles: "CC(C)(C)c1ccc(S(=O)(=O)Nc2ccc(-c3nc(-c4ccnc(Nc5cccc(Cl)c5)c4)no3)cc2)cc1"
  subject of test: "BV-2"
  measurement name: "IC50"
  numeric readout: 6.94
- cpd smiles: "O=S(=O)(Nc1ccc(-c2nc(-c3ccnc(Nc4ccc(OC(F)(F)F)cc4)c3)no2)cc1)c1ccc(OC(F)(F)F)cc1"
  subject of test: "BV-2"
  measurement name: "IC50"
  numeric readout: 4.22
- cpd smiles: "O=[N+]([O-])c1ccc(S(=O)(=O)Nc2ccc(-c3nc(-c4ccnc(Nc5ccc(OC(F)(F)F)cc5)c4)no3)cc2)cc1"
  subject of test: "BV-2"
  measurement name: "IC50"
  numeric readout: 7.59
- cpd smiles: "O=S(=O)(Nc1ccc(-c2nc(-c3ccnc(Nc4ccc(OC(F)(F)F)cc4)c3)no2)cc1)c1cccs1"
  subject of test: "BV-2"
  measurement name: "IC50"
  numeric readout: 1.3

---

assay overview: Cytotoxicity against human L-02 cells assessed as decreased cell viability at 50 uM after 24 hrs by MTT assay relative to control
Assay type: cell-based, L02
test conditions: read-out: INH

- cpd smiles: "CC(=O)c1ccc(S(=O)(=O)Nc2ccc(-c3nc(-c4ccnc(Nc5ccc(OC(F)(F)F)cc5)c4)no3)cc2)cc1"
  cytotoxicity at 24 h, 50 µM, %: 20

---

assay overview: Efflux ratio of apparent permeability across basolateral to apical membrane to apical to basolateral membrane in MDCK2-MDR1 measured upto 120 mins
Assay type: ADME, tissue-based, Canis lupus familiaris, MDCK-II
test conditions: dog, MDCK-MDR1

- cpd smiles: "CC(C)(C)c1ccc(S(=O)(=O)Nc2ccc(-c3nc(-c4ccnc(Nc5cccc(Cl)c5)c4)no3)cc2)cc1"
  efflux ratio at 2 h: 1.02
